MEASURED_ON: human TREX2 (residues M44-A279) (Homo sapiens)
Construct: human TREX2 (residues M44-A279, expressed in E. coli); His-TEV (His tag with TEV site) (N)
Sequence (Q9BQ50 whole entry, the tested form may be a part): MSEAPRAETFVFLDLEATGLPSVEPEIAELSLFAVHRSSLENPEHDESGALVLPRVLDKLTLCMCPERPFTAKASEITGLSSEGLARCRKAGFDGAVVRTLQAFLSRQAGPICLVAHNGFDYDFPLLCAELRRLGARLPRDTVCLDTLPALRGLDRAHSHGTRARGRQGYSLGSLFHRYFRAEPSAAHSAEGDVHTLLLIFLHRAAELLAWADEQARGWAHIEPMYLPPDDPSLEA
ASSAY_NAME: TREX2 Biochemical Assay (fluorescence, dsDNA substrate degradation)
CONDITION_INFO: 2.5 nM TREX2, 60 nM dsDNA substrate, 25 minutes at room temperature
PROPERTY_MEASURED: IC50

Task: Give its IC50 value. Item: `CN(Cc1cccnc1-c1cccc(Cl)c1)c1nc(C(=O)Nc2cnoc2)c(O)c(=O)n1C`
Result: 1000 to 10000 nM

Task: Give its IC50 value. Item: Cc1cccc(Cl)c1C(c1ccccn1)N(C)c1nc(C(=O)Nc2cnoc2)c(O)c(=O)n1C (single isomer, unassigned) [Example 63]
Result: < 1000 nM

Task: Give its IC50 value. Item: `CN(Cc1ccccc1-c1ccccc1)c1nc(C(=O)Nc2cnoc2)c(O)c(=O)n1C`
Result: 1000 to 10000 nM

Task: Give its IC50 value. Item: `CN(Cc1ccccc1-c1cnn(C)c1)c1nc(C(=O)Nc2cnoc2)c(O)c(=O)n1C`
Result: 1000 to 10000 nM

Task: Give its IC50 value. Item: `CN(Cc1ccncc1)c1nc(C(=O)Nc2cnoc2)c(O)c(=O)n1C`
Result: 10000 to 100000 nM

Task: Give its IC50 value. Item: `Cc1c(-c2ccncc2CN(C)c2nc(C(=O)Nc3cnoc3)c(O)c(=O)n2C)cnn1C`
Result: 1000 to 10000 nM

Task: Give its IC50 value. Item: CN(c1nc(C(=O)Nc2cnoc2)c(O)c(=O)n1C)C(c1ccccn1)c1ccccc1Cl (single isomer, unassigned) [Example 56]
Result: < 1000 nM

Task: Give its IC50 value. Item: CCN(c1nc(C(=O)Nc2cnoc2)c(O)c(=O)n1C)C(c1ccccc1)c1ccccc1Cl (single isomer, unassigned) [Example 91]
Result: < 1000 nM

Task: Give its IC50 value. Item: CN(c1nc(C(=O)Nc2cnoc2)c(O)c(=O)n1C)C(c1ccccc1)c1cccc(C#N)c1 (single isomer, unassigned) [Example 51]
Result: < 1000 nM

Task: Give its IC50 value. Item: `C[C@@H](c1ccccc1)N(C)c1nc(C(=O)Nc2cnoc2)c(O)c(=O)n1C`
Result: 1000 to 10000 nM

Task: Give its IC50 value. Item: `CN(C)C(=O)c1cccc(CN(C)c2nc(C(=O)Nc3cnoc3)c(O)c(=O)n2C)c1`
Result: 10000 to 100000 nM

Task: Give its IC50 value. Item: Cc1ccc(C(c2ccccc2)N(C)c2nc(C(=O)Nc3cnoc3)c(O)c(=O)n2C)cn1 (single isomer, unassigned) [Example 44]
Result: < 1000 nM

Task: Give its IC50 value. Item: `CN(Cc1cccc(C(F)(F)F)c1)c1nc(C(=O)Nc2cnoc2)c(O)c(=O)n1C`
Result: 1000 to 10000 nM

Task: Give its IC50 value. Item: Cc1cc(C(c2ccccc2Cl)N(C)c2nc(C(=O)Nc3cnoc3)c(O)c(=O)n2C)ccn1 (single isomer, unassigned) [Example 89]
Result: < 1000 nM

Task: Give its IC50 value. Item: `Cn1c(N(CCOc2ccccc2)Cc2ccccc2)nc(C(=O)Nc2cnoc2)c(O)c1=O`
Result: < 1000 nM

These entries and their values trace back to patent US20220289728A1.
